- Tested on: Key Broadleaf Weed and Crop Species
- Test Description: Post-Emergent Test II (Table 5)
- Format: in vivo
- Test Conditions: Helianthus annuus, post-emergence, 336 h, HELAN: sunflower (Helianthus annuus), application rate 70 (kg ai/ha; footnote: g ai/ha), read-out: Visual Growth Reduction (%) 14 Days After Application HELAN
Catalogue of pest or weed control at 70 g/ha readings, one per entry.
Experimental Endpoint: pest or weed control at 70 g/ha

Structure | Measured
Nc1c(F)c(-c2ccc(I)nc2)nc(C(=O)O)c1Cl | 75 to 84%
COC(=O)c1nc(-c2cccnc2)c(F)c(N)c1Cl | 85 to 94%
COC(=O)c1nc(-c2ccc(F)c(F)c2C)cc(N)c1Cl | 85 to 94%
COC(=O)c1nc(-c2c(F)cc(Cl)c(F)c2C)cc(N)c1Cl | 75 to 84%
Nc1cc(-c2ccc(Cl)c(F)c2C(=O)O)nc(C(=O)O)c1Cl | 0 to 29%
COC(=O)c1nc(-c2ccc(C(F)(F)F)nc2C)c(F)c(N)c1Cl | 0 to 29%
COC(=O)c1nc(-c2ccc(C(F)(F)F)nc2F)nc(N)c1Cl | 0 to 29%
COC(=O)c1nc(-c2ccc(Cl)c(F)c2C)cc(N)c1Cl | 95 to 100%
COc1nc(C(F)(F)F)ccc1-c1nc(C(=O)O)c(Cl)c(N)c1F | 60 to 74%
COC(=O)c1nc(-c2ccc(C(F)(F)F)c(F)c2C)cc(N)c1Cl | 0 to 29%
Nc1c(F)c(-c2ccc(Br)nc2)nc(C(=O)O)c1Cl | 95 to 100%
COC(=O)c1nc(-c2ccc(Cl)c(Cl)c2Cl)c(F)c(N)c1Cl | 85 to 94%
Cc1c(-c2cc(N)c(Cl)c(C(=O)O)n2)ccc(Cl)c1F | 95 to 100%
COC(=O)c1nc(-c2ccc(C(F)(F)F)nc2)cc(N)c1Cl | 60 to 74%
COC(=O)c1nc(-c2ccc(C(F)(F)F)c(F)c2C)c(F)c(N)c1Cl | 95 to 100%
C#Cc1c(-c2cc(N)c(Cl)c(C(=O)OC)n2)ccc(Cl)c1F | 0 to 29%
CCc1c(-c2cc(N)c(Cl)c(C(=O)O)n2)ccc(Cl)c1F | 75 to 84%
Nc1c(F)c(-c2ccc(C3CC3)nc2)nc(C(=O)O)c1Cl | 95 to 100%
COC(=O)c1nc(-c2ccc(Cl)c(OC)c2C(F)F)cc(N)c1Cl | 85 to 94%

====

- System: CYPSS: sedge including small-flower flatsedge (Cyperus difformis), yellow nutsedge (Cyperus esculentus), rice flatsedge (Cyperus iria)
- Test Description: Postemergence Herbicidal Activity in Direct Seeded Rice
- Type: in vivo
- Test Conditions: Growth reduction of 80% of plant growth, probit analysis

Structure | GR80, CYPSS
COC(=O)c1nc(-c2ccc(C(F)(F)F)nc2)c(C)c(N)c1Cl | 2 g ai/ha
Nc1c(Cl)c(C(=O)O)nc(-c2ccc(C(F)(F)F)nc2)c1Cl | 7 g ai/ha
COC(=O)c1nc(-c2ccc(Cl)nc2F)c(F)c(N)c1Cl | 7 g ai/ha
COC(=O)c1nc(-c2ccc(C(F)(F)F)nc2)c(Cl)c(N)c1Cl | 3 g ai/ha
COC(=O)c1nc(-c2ccc(C(F)(F)F)nc2)c(F)c(N)c1Cl | 3 g ai/ha
